Quick reference for IC50 among some compounds
target: RET V804M (Homo sapiens (Human), UniProt P07949, V804M); assay: HTRF kinase activity test, RET V804M; details: HTRF KinEASE-TK
Sequence (P07949 29-1114 V804M): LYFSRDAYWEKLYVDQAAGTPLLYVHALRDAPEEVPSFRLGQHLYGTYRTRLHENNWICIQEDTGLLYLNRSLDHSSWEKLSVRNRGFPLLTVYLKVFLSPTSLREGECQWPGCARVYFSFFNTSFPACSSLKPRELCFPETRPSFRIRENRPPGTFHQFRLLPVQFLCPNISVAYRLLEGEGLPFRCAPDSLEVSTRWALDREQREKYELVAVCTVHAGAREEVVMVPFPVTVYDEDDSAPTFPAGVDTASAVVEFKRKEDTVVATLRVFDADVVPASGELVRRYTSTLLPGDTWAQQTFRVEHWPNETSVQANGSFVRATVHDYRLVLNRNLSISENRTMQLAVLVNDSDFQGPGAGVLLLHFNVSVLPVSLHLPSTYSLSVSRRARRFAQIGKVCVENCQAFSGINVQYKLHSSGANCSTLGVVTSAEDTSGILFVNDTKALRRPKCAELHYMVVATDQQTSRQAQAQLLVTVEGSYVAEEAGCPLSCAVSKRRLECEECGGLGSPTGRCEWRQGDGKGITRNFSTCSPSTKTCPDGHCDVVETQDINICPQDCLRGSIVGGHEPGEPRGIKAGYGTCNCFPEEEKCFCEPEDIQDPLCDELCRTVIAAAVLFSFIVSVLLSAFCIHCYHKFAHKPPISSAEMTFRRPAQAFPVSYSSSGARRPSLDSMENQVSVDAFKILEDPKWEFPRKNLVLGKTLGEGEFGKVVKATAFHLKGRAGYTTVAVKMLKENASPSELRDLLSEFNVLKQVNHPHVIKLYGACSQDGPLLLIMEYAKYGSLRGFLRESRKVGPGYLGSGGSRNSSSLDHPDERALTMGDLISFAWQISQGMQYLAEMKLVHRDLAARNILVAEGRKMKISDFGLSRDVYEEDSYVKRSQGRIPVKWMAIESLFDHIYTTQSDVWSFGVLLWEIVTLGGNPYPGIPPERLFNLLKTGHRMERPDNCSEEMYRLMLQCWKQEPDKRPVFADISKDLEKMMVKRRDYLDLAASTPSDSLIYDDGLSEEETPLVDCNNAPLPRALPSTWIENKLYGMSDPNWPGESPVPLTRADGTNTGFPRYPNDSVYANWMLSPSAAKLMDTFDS
Express the result in nM but write the number alone.

Recorded results for 4 compounds are shown here.
INSERT INTO assay_data (compound, quantity, unit_symbol, endpoint_result) VALUES
  ('COc1ccc(CN2C3CC2CN(c2ccc(-c4cc(OCC(F)F)cn5nc6[nH]ncc6c45)cn2)C3)cn1 [Compound 32]', 'IC50', 'nM', 0.1),
  ('COc1ccc(CN2C3CC2CN(c2ccc(-c4cc(OCCOC(F)F)cn5nc6[nH]ncc6c45)cn2)C3)cn1 [Compound 27]', 'IC50', 'nM', 0.1),
  ('CCCOc1cc(-c2ccc(N3CC4CC(C3)N4Cc3ccc(OC)nc3)nc2)c2c3cn[nH]c3nn2c1 [Compound 38]', 'IC50', 'nM', 0.1),
  ('COCCOc1cc(-c2ccc(N3CC4CC(C3)N4Cc3ccc(OC)nc3)nc2)c2c3c(N)n[nH]c3nn2c1 [Compound 1]', 'IC50', 'nM', 2.9);

Looking for the measured IC50 of COc1ccc(C(=O)N2C3CC2CN(c2ccc(-c4cc(OCCF)cn5nc6[nH]ncc6c45)cn2)C3)cn1 [Compound 23] , can you help?
0.1
